System: MT-4
runDescription: Cytotoxicity in mock-infected MT-4 cells (MTT)
measuredAttribute: log10 of CC50 (log10 of the value in µM)
Scale: decimal log of CC50, CC50 in µM.

Query block: Given the entry Cc1cc(I)cc(C)c1Oc1nc(N)nc(Nc2ccc(C#N)cc2)n1 [Compound 60] , report its measured log10 of CC50.
Result block: 1.66

Query block: Given the entry Cc1ccc(Oc2nc(N)nc(Nc3ccc(C#N)cc3)n2)c(C)c1 [Compound 62] , report its measured log10 of CC50.
Result block: 1.71

Query block: Given the entry COc1cc(OC)c(Nc2nc(N)nc(Nc3ccc(C#N)cc3)n2)c(OC)c1 [Compound 68] , report its measured log10 of CC50.
Result block: 1.81

Query block: Given the entry N#Cc1ccc(Nc2nc(N)nc(Oc3c(Cl)ccc(Cl)c3Cl)n2)cc1 [Compound 43] , report its measured log10 of CC50.
Result block: 1.64

Query block: Given the entry N#Cc1ccc(Nc2nc(N)nc(Nc3c(Br)cc(Br)cc3Br)n2)cc1 [Compound 72] , report its measured log10 of CC50.
Result block: 0.81

Query block: Given the entry CC(C)c1cc(Br)c(Nc2nc(Nc3ccc(C#N)cc3)nc(Nc3ccc(C#N)cc3)n2)c(Br)c1 [Compound 75] , report its measured log10 of CC50.
Result block: 1.58

Query block: Given the entry Cc1cc(C)c(Nc2nc(N)nc(Nc3ccc(C#N)cc3)n2)c(C)c1N [Compound 61] , report its measured log10 of CC50.
Result block: 1.98

Query block: Given the entry N#Cc1ccc(Nc2nc(N)nc(Oc3c(Cl)cc(Cl)cc3Cl)n2)cc1 [Compound 30] , report its measured log10 of CC50.
Result block: 1.80

Query block: Given the entry Cc1c(Cl)c(C)c(Br)c(Oc2nc(N)nc(Nc3ccc(C#N)cc3)n2)c1Br [Compound 48] , report its measured log10 of CC50.
Result block: 0.94

Query block: Given the entry Cc1cc(Cl)cc(Cl)c1Oc1nc(N)nc(Nc2ccc(C#N)cc2)n1 [Compound 34] , report its measured log10 of CC50.
Result block: 0.68

Query block: Given the entry Cc1cccc(C(C)C)c1Nc1nc(N)nc(Nc2ccc(C#N)cc2)n1 [Compound 8] , report its measured log10 of CC50.
Result block: 0.97

* * *

Tested on: MT-4
runDescription: Cytotoxicity in mock-infected MT-4 cells (MTT)
measuredAttribute: log10 of CC50 (log10 of the value in µM)
Scale: decimal log of CC50, CC50 in µM.

Query block: Recorded log10 of CC50 for CCc1cccc(CC)c1Nc1nc(N)nc(Nc2ccc(C#N)cc2)n1 [Compound 12] with MT-4, please?
Result block: 1.48

Query block: Recorded log10 of CC50 for Cc1cc(Br)c(Nc2nc(Nc3ccc(C#N)cc3)nc(Nc3ccc(C#N)cc3)n2)c(Br)c1 [Compound 74] with MT-4, please?
Result block: 0.85

Query block: Recorded log10 of CC50 for Cc1cc(Cl)c(C)c(C)c1Oc1nc(N)nc(Nc2ccc(C#N)cc2)n1 [Compound 52] with MT-4, please?
Result block: 0.28

Query block: Recorded log10 of CC50 for N#Cc1ccc(Nc2nc(N)nc(Nc3c(F)c(F)c(F)c(F)c3F)n2)cc1 [Compound 67] with MT-4, please?
Result block: 1.66

Query block: Recorded log10 of CC50 for Cc1cc(C)c(Sc2nc(N)nc(Nc3ccc(C#N)cc3)n2)c(C)c1 [Compound 58] with MT-4, please?
Result block: 1.67

Query block: Recorded log10 of CC50 for Cc1ccc(Cl)c(C)c1Nc1nc(NO)nc(Nc2ccc(C#N)cc2)n1 [Compound 31] with MT-4, please?
Result block: 1.00
